Reference for the values: paper PMC7826789

System: CDKL5
Conditions: Compound Concentration (nM):1000;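 note: KINOMEscan scanMAX binding as percent activity remaining versus control; lower means stronger binding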

- COMPOUND: "NS(=O)(=O)c1ccc(N/N=C2\\C(=O)Nc3ccc(C(=O)NCc4ccncc4)cc32)cc1 [GW300657X]"
  Percent Control (%): 6.5
- COMPOUND: "COc1ccc2cc(-c3c(-c4ccncc4)nc(-c4ccc(S(C)(=O)=O)cc4C)n3C)ccc2c1 [SB-633825]"
  Percent Control (%): 82
- COMPOUND: "CN(C)c1cc2c(Nc3ccc4c(cnn4Cc4ccccc4)c3)ncnc2cn1 [GW282974X]"
  Percent Control (%): 40
- COMPOUND: "COc1ccc2c(-c3ccnc(Nc4cccc(OC(F)(F)F)c4)n3)cnn2n1 [GW810372X]"
  Percent Control (%): 14
- COMPOUND: "Cl.O=S1CCN(Cc2ccc(-c3ccc4ncnc(Nc5ccc(OCc6ccccc6)c(F)c5)c4c3)o2)CC1 [GW576924A]"
  Percent Control (%): 60
- COMPOUND: "CCS(=O)(=O)c1ccc(OC)c(Nc2ncc(-c3cccc(OC)c3)o2)c1 [GW580509X]"
  Percent Control (%): 59
- COMPOUND: "O=C1Nc2ccc(C(=O)c3ccco3)cc2C1=Cc1cc(Cl)c(O)c(Cl)c1 [GW406108X]"
  Percent Control (%): 100
- COMPOUND: "COc1ccccc1-c1cc(/C=C2\\C(=O)Nc3ncc(Br)cc32)cc(Br)c1O [GW442130X]"
  Percent Control (%): 88

----------
Quick reference for Percent Control among some compounds
System: MAP3K2
Conditions: Compound Concentration (nM):1000
RECORDED METRIC: Percent Control (%)

- COMPOUND: "CN(C)c1cc2c(Nc3ccc4c(cnn4Cc4ccccc4)c3)ncnc2cn1 [GW282974X]"
  TESTED ON: "MAP3K2"
  RECORDED METRIC: "Percent Control"
  VALUE REPORTED: 90
- COMPOUND: "COc1cccc(-n2ncc3c(N/N=C/c4ccncc4)ncnc32)c1 [GW784752X]"
  TESTED ON: "MAP3K2"
  RECORDED METRIC: "Percent Control"
  VALUE REPORTED: 100
- COMPOUND: "COc1cc(/C=N/Nc2ncnc3[nH]ncc23)ccc1O [GW578748X]"
  TESTED ON: "MAP3K2"
  RECORDED METRIC: "Percent Control"
  VALUE REPORTED: 67
- COMPOUND: "CCS(=O)(=O)c1ccc(OC)c(Nc2ncc(-c3cccc(OC)c3)o2)c1 [GW580509X]"
  TESTED ON: "MAP3K2"
  RECORDED METRIC: "Percent Control"
  VALUE REPORTED: 100
- COMPOUND: "COc1ccc2cc(-c3c(-c4ccncc4)nc(-c4ccc(S(C)(=O)=O)cc4C)n3C)ccc2c1"
  TESTED ON: "MAP3K2"
  RECORDED METRIC: "Percent Control"
  VALUE REPORTED: 60
- COMPOUND: "CCc1ccc(Oc2nccc(-c3c(-c4ccc(F)cc4)ncn3C3CCNCC3)n2)cc1"
  TESTED ON: "MAP3K2"
  RECORDED METRIC: "Percent Control"
  VALUE REPORTED: 98
- COMPOUND: "NS(=O)(=O)c1ccc(Nc2ncc(-c3ccccc3)o2)cc1 [GW572399X]"
  TESTED ON: "MAP3K2"
  RECORDED METRIC: "Percent Control"
  VALUE REPORTED: 87
- COMPOUND: "COc1ccc(COc2ccc(Cc3cnc(N)nc3N)cc2OC)cc1 [GW632580X]"
  TESTED ON: "MAP3K2"
  RECORDED METRIC: "Percent Control"
  VALUE REPORTED: 97
- COMPOUND: "NS(=O)(=O)c1ccc(N/N=C2\\C(=O)Nc3ccc(C(=O)NCc4ccncc4)cc32)cc1 [GW300657X]"
  TESTED ON: "MAP3K2"
  RECORDED METRIC: "Percent Control"
  VALUE REPORTED: 87

----------
Test system: HPK1
Construct: gene MAP4K1
Settings: Compound Concentration (nM):1000
Recorded Percent Control by entry

- MOLECULE: "COc1cc(C)c(N(C)C(=O)CN(C)C)cc1Nc1nc(Nc2cccc(F)c2C(N)=O)c2cc[nH]c2n1"
  Percent Control (%): 100
- MOLECULE: "CN(C)c1cc2c(Nc3ccc4c(cnn4Cc4ccccc4)c3)ncnc2cn1 [GW282974X]"
  Percent Control (%): 100
- MOLECULE: "Cl.c1ccc(Cc2nc3ccc(Nc4ncnc5ccccc45)cc3[nH]2)cc1 [GR269666A]"
  Percent Control (%): 98
- MOLECULE: "Cl.O=S1CCN(Cc2ccc(-c3ccc4ncnc(Nc5ccc(OCc6ccccc6)c(F)c5)c4c3)o2)CC1 [GW576924A]"
  Percent Control (%): 95
- MOLECULE: "COc1cccc(-n2ncc3c(N/N=C/c4ccncc4)ncnc32)c1 [GW784752X]"
  Percent Control (%): 100
- MOLECULE: "NS(=O)(=O)c1ccc(N/N=C2\\C(=O)Nc3ccc(-c4cnco4)cc32)cc1"
  Percent Control (%): 100
- MOLECULE: "CCc1ccc(Oc2nccc(-c3c(-c4ccc(F)cc4)ncn3C3CCNCC3)n2)cc1"
  Percent Control (%): 54
- MOLECULE: "COc1ccccc1-c1cc(/C=C2\\C(=O)Nc3ncc(Br)cc32)cc(Br)c1O [GW442130X]"
  Percent Control (%): 99

----------
Test system: HIPK3
Conditions: Compound Concentration (nM):1000

- MOLECULE: "Nc1ncnc2occ(-c3ccc(NC(=O)Nc4cc(C(F)(F)F)ccc4F)cc3)c12 [GW770249X]"
  Percent Control: "29%"
- MOLECULE: "NS(=O)(=O)c1ccc(N/N=C2\\C(=O)Nc3ccc(-c4cnco4)cc32)cc1"
  Percent Control: "20%"
- MOLECULE: "Cl.c1ccc(Cc2nc3ccc(Nc4ncnc5ccccc45)cc3[nH]2)cc1 [GR269666A]"
  Percent Control: "100%"
- MOLECULE: "O=C1Nc2ccc(C(=O)c3ccco3)cc2C1=Cc1cc(Cl)c(O)c(Cl)c1 [GW406108X]"
  Percent Control: "5.4%"
- MOLECULE: "COC(=O)Nc1nc2ccc(Oc3ccc(NC(=O)Nc4cc(C(F)(F)F)ccc4F)cc3)cc2s1.Cl [GW693917A]"
  Percent Control: "94%"
- MOLECULE: "COc1ccc2c(-c3ccnc(Nc4cccc(OC(F)(F)F)c4)n3)cnn2n1 [GW810372X]"
  Percent Control: "2.3%"
- MOLECULE: "COc1cccc(-n2ncc3c(N/N=C/c4ccncc4)ncnc32)c1 [GW784752X]"
  Percent Control: "23%"
- MOLECULE: "COc1ccc2[nH]c3c4[nH]c5ccc(OC)cc5c4c4c(c3c2c1)C(=O)NC4=O [GW296115X]"
  Percent Control: "44%"
- MOLECULE: "COc1cc2ncn(-c3cc(O[C@H](C)c4ccccc4Cl)c(C(N)=O)s3)c2cc1OC [GSK237701A]"
  Percent Control: "93%"

----------
System: ACVR1B
Details: Compound Concentration (nM):1000

- MOLECULE: "NS(=O)(=O)c1ccc(N/N=C2\\C(=O)Nc3ccc(C(=O)NCCc4c[nH]cn4)cc32)cc1 [GW300660X]"
  VALUE UNIT: "%"
  Percent Control: 100
- MOLECULE: "COc1cccc(-c2c[nH]c3c(N/N=C/c4ccncc4)ncnc23)c1 [GW814408X]"
  VALUE UNIT: "%"
  Percent Control: 42
- MOLECULE: "COc1cc(C)c(N(C)C(=O)CN(C)C)cc1Nc1nc(Nc2cccc(F)c2C(N)=O)c2cc[nH]c2n1 [GSK2219385]"
  VALUE UNIT: "%"
  Percent Control: 100
- MOLECULE: "Cl.O=C(Nc1ccc(Oc2ccc3[nH]c(NC(=O)c4ccco4)nc3c2)cc1)Nc1cc(C(F)(F)F)ccc1F [GW683134A]"
  VALUE UNIT: "%"
  Percent Control: 82
- MOLECULE: "CN1CCN(C(=O)c2ccc(NC(=O)Nc3ccc(N(C)c4ccnc(Nc5ccc(CS(C)(=O)=O)cc5)n4)cc3)cc2)CC1.Cl [GW830263A]"
  VALUE UNIT: "%"
  Percent Control: 77
- MOLECULE: "CCS(=O)(=O)c1ccc(OC)c(Nc2ncc(-c3cccc(F)c3)o2)c1 [GW621970X]"
  VALUE UNIT: "%"
  Percent Control: 100
- MOLECULE: "Nc1ncnc2occ(-c3ccc(NC(=O)Nc4cc(C(F)(F)F)ccc4F)cc3)c12 [GW770249X]"
  VALUE UNIT: "%"
  Percent Control: 100
- MOLECULE: "CN(C)CCNC(=O)Nc1ccc(N(C)c2ccnc(Nc3ccc(CS(C)(=O)=O)cc3)n2)cc1.Cl [GW830900A]"
  VALUE UNIT: "%"
  Percent Control: 100
- MOLECULE: "C[C@@H](Oc1cc(-n2cnc3ccc(OC4CCN(C)CC4)cc32)sc1C(N)=O)c1ccccc1Cl [GSK579289A]"
  VALUE UNIT: "%"
  Percent Control: 81
- MOLECULE: "COc1ccc2cc(-c3c(-c4ccncc4)nc(-c4ccc(S(C)(=O)=O)cc4C)n3C)ccc2c1 [SB-633825]"
  VALUE UNIT: "%"
  Percent Control: 19
- MOLECULE: "CN(C)c1cc2c(Nc3ccc4c(cnn4Cc4ccccc4)c3)ncnc2cn1 [GW282974X]"
  VALUE UNIT: "%"
  Percent Control: 100
- MOLECULE: "COc1ccc2[nH]c3c4[nH]c5ccc(OC)cc5c4c4c(c3c2c1)C(=O)NC4=O [GW296115X]"
  VALUE UNIT: "%"
  Percent Control: 100
- MOLECULE: "COc1ccccc1-c1cc(/C=C2\\C(=O)Nc3ncc(Br)cc32)cc(Br)c1O [GW442130X]"
  VALUE UNIT: "%"
  Percent Control: 95
- MOLECULE: "COc1cc2ncnc(Nc3ccc4c(cnn4Cc4ccccc4)c3)c2cc1OC.Cl [GW282449A]"
  VALUE UNIT: "%"
  Percent Control: 100
- MOLECULE: "Cl.O=S1CCN(Cc2ccc(-c3ccc4ncnc(Nc5ccc(OCc6ccccc6)c(F)c5)c4c3)o2)CC1 [GW576924A]"
  VALUE UNIT: "%"
  Percent Control: 100
- MOLECULE: "COc1cc(C=NNc2ncnc3c2cnn3-c2ccccc2)ccc1O [GW513184X]"
  VALUE UNIT: "%"
  Percent Control: 53
